system: Saccharomyces cerevisiae BY4741 SeMeCo community; assay: z-score of subpopulation abundance vs DMSO median, subpopulation auxotrophic for U; higher = larger share of this subpopulation than in DMSO controls; conditions: 10 µM; 24 h; SM minimal medium; subpopulation (auxotrophy): U
Decide by z-score of subpopulation abundance: equal to or exceeding 0 means met, less means not met.

Check out these entries, answers already filled in.
- O=C([O-])CC(O)(CC(=O)[O-])C(=O)[O-].O=C([O-])CC(O)(CC(=O)[O-])C(=O)[O-].[Bi+3].[K+].[K+].[K+].[K+].[K+] [Bismuth Subcitrate Potassium]: not met
- Clc1ccc(CSC(Cn2ccnc2)c2ccc(Cl)cc2Cl)cc1 (stereo not given) [Sulconazole Nitrate]: met
- CN(C)CCN1C(=O)c2cccc3cc(N)cc(c23)C1=O [Amonafide]: not met
- CN(C)CC(c1ccc(O)cc1)C1(O)CCCCC1 (stereo not given) [Desvenlafaxine]: met
- COc1ccc(Cc2cnc(N)nc2N)cc1OC [Diaveridine]: not met
- COC(=O)C1=C(C)NC(C)=C(C(=O)OCC(C)C)C1c1ccccc1[N+](=O)[O-] (stereo not given) [Nisoldipine]: not met

Is the recorded value of z-score of subpopulation abundance equal to or greater than 0 for this compound? CC1=C(C(=O)O)N2C(=O)[C@@H](NC(=O)[C@H](N)C3=CCC=CC3)[C@H]2SC1 [Cephradine monohydrate]
met

Ok, now CC[C@H](C)C[C@H](C)CCCCCCCCC(=O)N[C@H]1C[C@@H](O)[C@@H](NCCN)NC(=O)[C@@H]2[C@@H](O)CCN2C(=O)[C@H]([C@H](O)CCN)NC(=O)[C@H]([C@H](O)[C@@H](O)c2ccc(O)cc2)NC(=O)[C@@H]2C[C@@H](O)CN2C(=O)[C@H]([C@@H](C)O)NC1=O [Caspofungin Acetate]
not met

Also, CSCC1CN(/N=C/c2ccc([N+](=O)[O-])o2)C(=O)O1 (stereo not given) [Nifuratel] please.
not met
